target: EGFR^L858R (Homo sapiens, UniProt P00533, L858R); assay: in vitro kinase assay (HTRF KinEASE-TK kit), L; conditions: kinase inhibition
Sequence (P00533 25-1210 L858R): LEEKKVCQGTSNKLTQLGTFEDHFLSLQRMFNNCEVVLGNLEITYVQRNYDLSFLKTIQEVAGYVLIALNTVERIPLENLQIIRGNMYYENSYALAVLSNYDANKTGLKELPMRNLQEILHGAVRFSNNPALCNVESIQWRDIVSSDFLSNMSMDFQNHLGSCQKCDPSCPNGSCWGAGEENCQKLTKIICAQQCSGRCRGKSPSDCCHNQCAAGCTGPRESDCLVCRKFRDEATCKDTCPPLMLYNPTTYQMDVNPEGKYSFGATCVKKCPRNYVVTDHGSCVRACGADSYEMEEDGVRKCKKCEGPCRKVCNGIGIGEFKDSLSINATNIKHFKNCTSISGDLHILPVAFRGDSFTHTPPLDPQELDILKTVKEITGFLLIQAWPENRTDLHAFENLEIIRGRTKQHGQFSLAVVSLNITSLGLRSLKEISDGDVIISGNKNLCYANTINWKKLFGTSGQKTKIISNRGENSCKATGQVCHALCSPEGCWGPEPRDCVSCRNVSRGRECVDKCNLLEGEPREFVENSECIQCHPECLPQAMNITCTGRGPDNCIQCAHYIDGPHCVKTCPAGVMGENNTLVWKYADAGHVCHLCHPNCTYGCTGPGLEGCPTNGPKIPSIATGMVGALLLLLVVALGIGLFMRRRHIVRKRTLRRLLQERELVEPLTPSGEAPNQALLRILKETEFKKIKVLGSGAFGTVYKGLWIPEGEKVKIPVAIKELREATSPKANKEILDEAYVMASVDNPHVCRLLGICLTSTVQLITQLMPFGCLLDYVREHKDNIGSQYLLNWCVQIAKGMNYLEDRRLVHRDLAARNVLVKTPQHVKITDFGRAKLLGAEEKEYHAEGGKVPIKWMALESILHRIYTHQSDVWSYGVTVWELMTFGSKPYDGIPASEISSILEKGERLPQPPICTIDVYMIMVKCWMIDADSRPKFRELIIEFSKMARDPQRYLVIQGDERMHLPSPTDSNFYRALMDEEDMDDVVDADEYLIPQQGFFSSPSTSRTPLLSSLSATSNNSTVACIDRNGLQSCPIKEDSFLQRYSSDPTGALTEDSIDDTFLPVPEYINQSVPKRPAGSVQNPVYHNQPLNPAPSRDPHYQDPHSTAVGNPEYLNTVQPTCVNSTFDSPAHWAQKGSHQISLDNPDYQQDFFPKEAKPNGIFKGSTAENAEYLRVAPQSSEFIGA
Metric: IC50

Documented IC50 of C[C@H]1CCOc2c(cnn2C)-c2nccc(n2)Nc2cc3c(cn2)c(-c2ccc(CN4CCN(C)CC4)n2C)nn31 : < 10 nM

Documented IC50 of C[C@H]1CCOc2c(cnn2C)-c2nccc(n2)Nc2cc3c(cn2)c(-c2ccc(CN4CCN(C)CC4)cc2)nn31 : < 10 nM

Documented IC50 of CC(C)N1CCN(Cc2ccc(-c3nn4c5cc(ncc35)Nc3ccnc(n3)-c3cnn(C)c3OCC[C@@H]4C)n2C)CC1 : < 10 nM

Documented IC50 of CC(C)NCc1ccc(-c2nn3c4cc(ncc24)Nc2ccnc(n2)-c2cnn(C)c2OCC[C@@H]3C)n1C : < 10 nM

Documented IC50 of CC1CCCCOc2c(cnn2C)-c2nccc(n2)Nc2cc3c(cn2)c(N2CCC2)nn31 (stereo not shown) : 10 to 100 nM

Documented IC50 of C[C@H]1CCOc2c(cnn2C)-c2nccc(n2)Nc2cc3c(cn2)c(-c2ccnc(N4CCN(C)CC4)c2)nn31 : < 10 nM

Documented IC50 of Cc1cc(OCCN(C)C)cc(-c2nn3c4cc(ncc24)Nc2ccnc(n2)-c2cnn(C)c2OCC[C@@H]3C)c1 : < 10 nM
